Please go through the items and note down their TGI.
- System: K-562 leukemia
- ASSAY_INFO: NCI tumour cell line growth inhibition, 48 h

// solved cases for TGI follow
| MOLECULE | TGI |
| --- | --- |
| Clc1ccc(C=NC23CC4CC(CC(C4)C2)C3)cc1Cl | > 10 µM |
| Cc1cc(C)n(C(=O)c2nn(-c3ccc(Cl)cc3)cc2O)n1 | > 100 µM |
| COc1cccc(NC(=O)CC(=O)N2N=C(C)C(N=Nc3ccc(S(=O)(=O)CCOS(=O)(=O)O)cc3)C2=O)c1 (stereo unspecified) | > 100 µM |
| CCN(CC)CCOc1ccc2c(c1)C(=O)c1cc(OCCN(CC)CC)ccc1-2 | 11.2 µM |
| COC(=O)C1N=CSCC1(C)O (stereo unspecified) | > 100 µM |

Please look at the items below and tell me TGI for each one, in order.
1. N#CC(C(=N/NC(N)=S)/C(=N/NC(N)=S)C(C#N)c1ccc(Cl)cc1)c1ccc(Cl)cc1 (stereo unspecified)
2. CCCCN(CCCC)C(=O)C(=O)C(C)C(=O)CC (stereo unspecified)
3. Cc1cc(C)c2c(SCc3ccc(Cl)cc3Cl)nc(N)nc2n1
4. O=C1CC2(CCC(O)(c3cccs3)C(C(=O)c3cccs3)C2)C(=O)c2ccccc2N1 (stereo unspecified)
5. Cc1c2n(c3ccccc13)CC1CON(C)C21 (stereo unspecified)
6. CCOc1ccc2ccc3cccnc3c2n1

A:
1. > 100 µM
2. > 100 µM
3. 97.1 µM
4. > 100 µM
5. > 100 µM
6. > 100 µM

---

- Test system: RXF 393 renal
- ASSAY_INFO: NCI tumour cell line growth inhibition, 48 h
I'd be grateful if you could share measured TGI for these entries.

Record excerpt, results attached:
| COMPOUND | RESULT_TYPE | REPORTED_MEASUREMENT |
| --- | --- | --- |
| O=C(CNc1ncco1)Nc1ccc(S(=O)(=O)c2ccc(NC(=O)CNc3ncco3)cc2)cc1 | TGI | 2.86 µM |
| COC(=O)c1nc(-c2nc(CCNC(=O)OC(C)(C)C)sc2Cl)sc1Cl | TGI | > 100 µM |
| CCSC1=N/C(=C/c2ccccc2O)C(=O)N1 | TGI | 68.1 µM |

Could you tell me TGI for each of these compounds? They are listed below.
1. COc1ccc(C(=O)C(C(=O)C(=O)Nc2nccs2)c2ccc(OC)cc2)cc1 (stereo unspecified)
2. NC(Cc1ccnnc1)C(=O)O (stereo unspecified)

A:
1. > 100 µM
2. > 100 µM

Q: For CC1CCP(=O)(c2ccccc2)CC1 (stereo unspecified) , what is its reported TGI?
A: > 100 µM

---

- System: A549 NSCLC
- ASSAY_INFO: NCI tumour cell line growth inhibition, 48 h
Exercise: for every item that follows, state its recorded TGI.

| COMPOUND | REPORTED_MEASUREMENT |
| --- | --- |
| CCNc1nc2c(ncn2C2CC(O)C(COP(=O)(O)O)O2)c(=O)[nH]1 (stereo not given) | > 100 µM |
| O=c1c2ccccc2[nH]c(=S)n1-c1ccc(N=Nc2cccc3cc(O)ccc23)cc1 | > 100 µM |
| Cc1cnoc1NS(=O)(=O)c1ccc(Nc2nnc(/C=C/c3c(O)ccc4ccccc34)c(=O)n2N)cc1 | > 100 µM |
| COc1cc2c(cc1C)NC(=O)/C2=C/c1c(Cl)n(-c2ccccc2)c2ccccc12 | > 100 µM |
| Cc1nc2c(n1CCN(C)C)C(=O)c1ccccc1C2=O | 52.8 µM |
| COC(=O)CCc1cccnc1/C=N/O | > 100 µM |
| CN(C)CC1(Cc2ccccc2)CCC(Cc2ccccc2)C1=O (stereo not given) | 33.5 µM |
| COc1cc2c(c(OC)c1OC)C(=O)[C@H](Br)[C@H]2NC(=O)NCCCl | > 100 µM |
| CC(=O)c1sc(Nc2ccc(Cl)c(Cl)c2)nc1C | > 100 µM |
| COc1ccc(C(=O)C(C(=O)C(=O)Nc2nccs2)c2ccc(OC)cc2)cc1 (stereo not given) | > 100 µM |

Required: TGI, one value per compound below.
1. [C-]#[N+][C@]12C(=O)[C@H](CCC1(C)C)C(C)(C)[C@H]1C(=O)N(C)c3cccc2c31
2. Cn1c2ccccc2c2nc3ccccc3c(Cl)c21
3. COc1cc(NCc2ccccc2O)c2ncccc2c1
4. O=C1c2ccccc2C(C2c3ccccc3C(=O)c3cc(Br)ccc32)c2ccc(Br)cc21 (stereo not given)
5. COc1ccc(-c2nnc(N3CCN(C(=O)CN4CCN(c5ccc(Cl)cc5)CC4)CC3)nc2-c2ccc(OC)cc2)cc1
6. COc1cc([C@@H]2c3cc4c(cc3[C@@H](c3c(O)cc(O)c5c3O[C@H](c3ccc(O)c(O)c3)[C@H](OC(=O)c3cc(O)c(O)c(O)c3)C5)[C@H]3COC(=O)[C@H]23)OCO4)cc(OC)c1OC

A:
["> 100 µM", "> 100 µM", "> 100 µM", "> 100 µM", "> 100 µM", "> 100 µM"]
